The entries below are paired with their reported concentration at 30 min.
Assay: in vivo
Conditions: monkey, serum, intravenous, 2 mg/kg
measuredEndpoint: concentration at 30 min (ng/mL)

> print(dat)
                                   molecule  observed
1  CC(C)NCC(O)COc1ccc(CC(N)=O)cc1 (centres unmarked) [ATENOLOL, reference compound]      1190
2  COc1cc(CC(=O)N2CC(O)C(O)C2C(=O)N2CCN(CC(=O)O)CC2)ccc1NC(=O)Nc1ccccc1C (centres unmarked)      3900

###

Assay: Mouse bio-assay: serum concentration after oral dosing, determined by direct binding assay of diluted serum
Details: female, Balb/c, serum, po, 50 mg/kg
Structures can show the parent of a compound that is named as a salt.
Reported concentration at 15 min is given for each of the following molecules.
measuredEndpoint: concentration at 15 min (ng/mL)

> print(dat)
                                   molecule  observed
1  COc1cc(CC(=O)N(CCOc2ccc(C(=O)O)cc2)CCN2CCC(F)(F)C2)ccc1NC(=O)Nc1ccccc1Br [Compound 319, sodium salt]       603
2  C=CCN(CC=C)CCN(CCOc1ccc(C(=O)O)cc1)C(=O)Cc1ccc(NC(=O)Nc2ccccc2Cl)c(OC)c1 [Compound 323, sodium salt]      1420

###

Assay: in vivo
Conditions: monkey, serum, intravenous, 2 mg/kg
measuredEndpoint: concentration at 8 hr

> print(dat)
                                   compound   observed
1  COc1cc(CC(=O)N2CC(O)C(O)C2C(=O)N2CCN(CC(=O)O)CC2)ccc1NC(=O)Nc1ccccc1C (centres unmarked) [Compound 195]   28 ng/mL
2  CC(C)NCC(O)COc1ccc(CC(N)=O)cc1 (centres unmarked) [ATENOLOL, reference compound]  137 ng/mL

###

Overview of reported melting point across a group of compounds:
measuredEndpoint: melting point

> print(dat)
                                    compound       observed
 1  Cc1cc(CC(=O)N2C[C@@H](F)C[C@H]2COc2ccc(C(=O)O)cc2)ccc1NC(=O)Nc1ccccc1F  137 to 143 °C
 2  COc1cc(C(=O)O)ccc1OCc1csc(Cc2ccc(NC(=O)Nc3ccccc3C)cc2)n1  243 to 245 °C
 3  COc1cc(CC(=O)N2CCCC2C#Cc2ccc(C(=O)O)cc2)ccc1NC(=O)Nc1ccccc1C (stereo not shown)  161 to 164 °C
 4  O=C(Nc1ccc(CC(=O)N2C[C@@H](F)C[C@H]2COc2ccc(C(=O)O)cc2)cc1)Nc1ccccc1C(F)(F)F  130 to 135 °C
 5  COc1cc(CC(=O)N2C[C@@H](NS(C)(=O)=O)C[C@H]2COc2ccc(C(=O)O)cc2)ccc1NC(=O)Nc1ccccc1Br  125 to 128 °C
 6  COc1cc(CC(=O)N2C[C@@H](N(C)C)C[C@H]2COc2ccc(C(=O)O)cc2)ccc1NC(=O)Nc1ccccc1Cl  165 to 167 °C
 7  COc1cc(CC(=O)N2C[C@@H](Cl)C[C@H]2COc2ccc(C(=O)O)cc2)ccc1NC(=O)Nc1ccccc1Cl  126 to 131 °C
 8  COc1cc(CC(=O)N2CSC[C@H]2COc2ccc(C(=O)O)cc2)ccc1NC(=O)Nc1ccccc1Cl (stereo in doubt)  126 to 129 °C
 9  COc1cc(CC(=O)N2CSC[C@H]2COc2ccc(C(=O)O)cc2)ccc1NC(=O)Nc1ccccc1C (stereo in doubt)  125 to 128 °C
10  COc1cc(CC(=O)N2CC(F)(F)C[C@H]2COc2ccc(C(=O)O)cc2)ccc1NC(=O)Nc1ccccc1C (stereo in doubt)  135 to 140 °C
11  COc1cc(CC(=O)N(CCOc2ccc(C(=O)O)cc2OC)CCN2CCN(C)CC2)ccc1NC(=O)Nc1ccccc1C  155 to 160 °C
12  Cc1ccccc1NC(=O)Nc1ccc(CC(=O)N2C[C@@H](Oc3ccc(C(=O)O)cc3)C[C@H]2COc2ccc(C(=O)O)cc2)cc1  157 to 160 °C
13  COc1cc(CC(=O)N2C[C@H](OC)C[C@H]2COc2ccc(C(=O)O)cc2)ccc1NC(=O)Nc1ccccc1C  112 to 115 °C

Where do the numbers come from? From patent US7179819B2.
